Biological target: T1, human E-selectin extracellular domain with 10 His purification tail (human, UniProt P16581 22-556)
T1 construct: also called soluable human E-selectin extracellular domain; rhE-Selectin
T1 sequence: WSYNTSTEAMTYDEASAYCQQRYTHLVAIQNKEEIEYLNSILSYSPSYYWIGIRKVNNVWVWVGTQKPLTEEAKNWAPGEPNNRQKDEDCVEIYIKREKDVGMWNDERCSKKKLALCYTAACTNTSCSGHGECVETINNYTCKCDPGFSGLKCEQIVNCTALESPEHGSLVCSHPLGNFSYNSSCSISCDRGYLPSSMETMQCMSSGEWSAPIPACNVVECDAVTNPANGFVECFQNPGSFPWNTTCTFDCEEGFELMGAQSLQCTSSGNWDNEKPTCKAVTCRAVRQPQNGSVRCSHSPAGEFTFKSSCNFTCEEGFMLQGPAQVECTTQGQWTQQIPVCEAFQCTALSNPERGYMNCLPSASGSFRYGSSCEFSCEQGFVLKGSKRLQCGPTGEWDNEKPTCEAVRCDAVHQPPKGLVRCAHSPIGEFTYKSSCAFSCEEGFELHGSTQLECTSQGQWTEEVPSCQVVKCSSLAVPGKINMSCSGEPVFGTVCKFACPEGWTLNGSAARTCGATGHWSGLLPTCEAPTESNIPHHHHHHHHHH
Assay: SPR, antibody captured, E-selectin analyte
# key: entry, value: koff
Experimental Readout: koff

- optimized anti-E-selectin antibody 1444 (antibody, human IgG1, kappa, V domains shown, effector-null human IgG1, kappa) VH: EVQLVESGGGLVQPGGSLRLSCAASGYAIRSAYMHWVRQAPGKGLEWVARIDPANGNTIYVDSVTGRFTISADNAKNSAYLQMNSLRAEDTAVYYCAMDLYSTSEYWGQGTLVTVSS VL: DIQMTQSPSSLSASVGDRVTITCKTSQNIERYLNWYQQKPGKAPKLLIYAASSLQSGVPSRFSGSGSGTDFTLTISSLQPEDFATYFCLQDNAWPLTFGQGTKVEIKR: 0.0163 s⁻¹
- optimized anti-E-selectin antibody 1282 (antibody, human IgG1, kappa, V domains shown, effector-null human IgG1, kappa) VH: EVQLVESGGGLVQPGGSLRLSCAASGYAIRSAYMHWVRQAPGKGLEWVARIDPANGNTIYVDSVEGRFTISADNAKNSAYLQMNSLRAEDTAVYYCAMDLYSTSEYWGQGTLVTVSS VL: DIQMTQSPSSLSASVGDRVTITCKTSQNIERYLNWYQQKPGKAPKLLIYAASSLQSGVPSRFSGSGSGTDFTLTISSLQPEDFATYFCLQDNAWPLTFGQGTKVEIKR: 0.0141 s⁻¹
- optimized anti-E-selectin antibody 1284 (antibody, human IgG1, kappa, V domains shown, effector-null human IgG1, kappa) VH: EVQLVESGGGLVQPGGSLRLSCAASGYAIRSAYMHWVRQAPGKGLEWVARIDPANGNTIYVESVEGRFTISADNAKNSAYLQMNSLRAEDTAVYYCAMDLYSTSEYWGQGTLVTVSS VL: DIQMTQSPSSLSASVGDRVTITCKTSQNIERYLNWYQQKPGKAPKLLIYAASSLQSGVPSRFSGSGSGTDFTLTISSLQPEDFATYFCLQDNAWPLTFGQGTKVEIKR: 0.0145 s⁻¹
- optimized anti-E-selectin antibody 1448 (antibody, human IgG1, kappa, V domains shown, effector-null human IgG1, kappa) VH: EVQLVESGGGLVQPGGSLRLSCAASGYAIRSAYMHWVRQAPGKGLEWVARIDPANGNTIYVDSVKERFTISADNAKNSAYLQMNSLRAEDTAVYYCAMDLYSTSEYWGQGTLVTVSS VL: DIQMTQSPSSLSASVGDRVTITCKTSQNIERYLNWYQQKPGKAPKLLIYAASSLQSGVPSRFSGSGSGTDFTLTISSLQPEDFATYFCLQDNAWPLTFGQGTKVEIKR: 0.0126 s⁻¹

Data provenance is patent US20240076386A1.
